Cited source for all entries: patent US20180338980A1

target: P2X4 (Homo sapiens)
method-summary: Assay B: human P2X4 receptor cell line, mitochondrial photina luminescence (agonist Bz-ATP at EC50)
Type: cell-based
Design: host or cells: HEK 293 (recombinant, constitutively expressing; with mitochondrial photina in Assay B)
condition-summary: HEK human P2X4 cell line, photina luminescence, agonist Bz-ATP at EC50, average; read-out: human P2X4 Assay B avg Efficacy
I'd appreciate it if you could supply Emax values for the items below.
Report the figure in % without appending any unit label.

What is its Emax for P2X4 (Homo sapiens)? Entry: CN1CCC(Oc2ccc(NC(=O)Cc3ccccc3Cl)cc2S(N)(=O)=O)C1 (centres unmarked) [Example 222]
70

Also, COc1ccc(Cl)c(CC(=O)Nc2ccc(Oc3cccc(Cl)c3)c(S(N)(=O)=O)c2)c1 [Example 102] please.
61

Can you handle NS(=O)(=O)c1cc(NC(=O)Cc2ccccc2)ccc1OC1CCOCC1 [Example 206] next?
88

Now this one: Cc1ccc(F)c(CC(=O)Nc2ccc(Oc3cccc(Cl)c3)c(S(N)(=O)=O)c2)c1Cl [Example 120]
78

Same again, this time with COCCOc1ccccc1CC(=O)Nc1ccc(Oc2cccc(Cl)c2)c(S(N)(=O)=O)c1 [Example 211]
102

What would you report for N#Cc1cc(Cl)c(CC(=O)Nc2ccc(Oc3ccc(Cl)cc3)c(S(N)(=O)=O)c2)cc1Cl [Example 243] ?
70

Repeat with NS(=O)(=O)c1cc(NC(=O)Cc2ccccc2OCCO)ccc1Oc1cccc(Cl)c1 [Example 213]
61

Now consider COc1ccc(CC(=O)Nc2ccc(Oc3ccc(Cl)cc3)c(S(N)(=O)=O)c2)c(Cl)c1 [Example 235] and answer again.
69

Would you kindly repeat that for NS(=O)(=O)c1cc(NC(=O)Cc2ccccc2)ccc1OC1CCC1 [Example 204] ?
60

Then what about the molecule N#Cc1ccc(Oc2ccc(NC(=O)Cc3ccccc3Cl)cc2S(N)(=O)=O)cc1 [Example 030] ?
99

// repeat for NS(=O)(=O)c1cc(NC(=O)Cc2ccc(C(F)(F)F)cc2)ccc1Oc1ccccc1OC(F)(F)F [Example 072] and report
63

Same again, this time with NS(=O)(=O)c1cc(NC(=O)Cc2ccccc2)ccc1Oc1cccc(F)c1 [Example 249]
73

Then this molecule: COCCN(C)C(=O)c1ccccc1CC(=O)Nc1ccc(Oc2cccc(Cl)c2)c(S(N)(=O)=O)c1 [Example 197]
68

Same question, NS(=O)(=O)c1cc(NC(=O)Cc2ccccc2Cl)ccc1OCC1CCOC1 (centres unmarked) [Example 162] this time
66

Now the molecule Cc1ccc(Cl)c(CC(=O)Nc2ccc(Oc3cccc(Cl)c3)c(S(N)(=O)=O)c2)c1Cl [Example 128]
60

Try the molecule Cn1nccc1Oc1ccc(NC(=O)Cc2ccccc2Cl)cc1S(N)(=O)=O [Example 237]
59

Queued: Cc1ccncc1CC(=O)Nc1ccc(Oc2cccc(Cl)c2)c(S(N)(=O)=O)c1 [Example 092]
57

====

Assign IC50 to each entry below.
target: UniProt:Q99571
Sequence (Q99571 1-388): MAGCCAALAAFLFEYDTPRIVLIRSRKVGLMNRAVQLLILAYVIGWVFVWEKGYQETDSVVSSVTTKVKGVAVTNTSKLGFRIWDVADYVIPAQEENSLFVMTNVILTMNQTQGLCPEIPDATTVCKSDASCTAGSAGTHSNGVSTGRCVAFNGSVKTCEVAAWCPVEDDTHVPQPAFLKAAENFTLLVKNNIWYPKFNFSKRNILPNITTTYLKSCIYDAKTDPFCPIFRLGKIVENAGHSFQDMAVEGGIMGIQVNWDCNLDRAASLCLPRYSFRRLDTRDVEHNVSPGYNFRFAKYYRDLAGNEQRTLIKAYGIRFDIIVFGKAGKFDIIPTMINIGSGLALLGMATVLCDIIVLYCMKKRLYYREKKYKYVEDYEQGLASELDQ
method-summary: Assay A: human P2X4 receptor cell line, FLIPR calcium assay (Fluo-8, agonist Bz-ATP at EC80)
Assay type: cell-based
Set-up: host or cells: HEK 293 (recombinant, constitutively expressing; with mitochondrial photina in Assay B)
condition-summary: HEK human P2X4 cells, Fluo-8 FLIPR, Bz-ATP at EC80; average values
Entry rule: numbers only, all in nM.

Would you mind telling me what IC50 value was observed for NS(=O)(=O)c1cc(NC(=O)Cc2c(Cl)ccc(C(F)(F)F)c2Cl)ccc1Oc1cccc(Cl)c1 ?
979

Ok, now NS(=O)(=O)c1cc(NC(=O)Cc2cccc(Cl)c2Cl)ccc1Oc1cccc(Cl)c1
208

Also NS(=O)(=O)c1cc(NC(=O)Cc2cc(OC(F)(F)C(F)F)ccc2Cl)ccc1Oc1cccc(Cl)c1 ?
688

Subsequent entry: C=C(C)c1ccccc1Oc1ccc(NC(=O)Cc2ccccc2Cl)cc1S(N)(=O)=O
392

====

target: P2X4 (Homo sapiens, UniProt Q99571)
method-summary: Assay B: human P2X4 receptor cell line, mitochondrial photina luminescence (agonist Bz-ATP at EC50)
Format: cell-based
Set-up: host or cells: HEK 293 (recombinant, constitutively expressing; with mitochondrial photina in Assay B)
condition-summary: HEK human P2X4 cell line, photina luminescence, agonist Bz-ATP at EC50, average; read-out: human P2X4 Assay B avg Efficacy
Method: The identification of agonists and antagonists of the P2X4 receptor from humans and […] also the quantification of the activity of the compounds of the invention was performed by use of recombinant cell lines. […] The test cell lines constitutively express the mouse or human P2X4 receptors. […] The strength of Fluo8 fluorescence signal or photina luminescence signal corresponds to the level of receptor activation. […] The resulting light signal is measured immediately in the luminometer.
Answer each item with its documented Emax.
The reply should be a number in %, with the unit left off.

Reported Emax for P2X4 (Homo sapiens, UniProt Q99571), given NS(=O)(=O)c1cc(NC(=O)Cc2ccccc2Cl)ccc1OCC1CCC1 ?
55

Ok, now NS(=O)(=O)c1cc(NC(=O)Cc2c(Cl)ccc(Cl)c2Cl)ccc1Oc1cccc(Cl)c1
97

How about this compound: NS(=O)(=O)c1cc(NC(=O)Cc2ccccc2Cl)ccc1Oc1cccc(C(=O)NC2CC2)c1
56

Please do the same for NS(=O)(=O)c1cc(NC(=O)Cc2ccccc2Cl)ccc1Oc1cccc(N2CCCC2=O)c1 as well.
87

Consider next the compound NS(=O)(=O)c1cc(NC(=O)Cc2cc(OC(F)(F)C(F)F)ccc2Cl)ccc1Oc1cccc(Cl)c1 in the same way.
77

// same read-out, input: CN1CCN=C1c1cccc(Oc2ccc(NC(=O)Cc3ccccc3Cl)cc2S(N)(=O)=O)c1
72

Subsequent entry: N#Cc1ccccc1COc1ccc(NC(=O)Cc2ccccc2Cl)cc1S(N)(=O)=O
72

Check NS(=O)(=O)c1cc(NC(=O)Cc2ccc(F)cc2)ccc1Oc1ccc(Cl)cc1 too.
82

Same read-out for NS(=O)(=O)c1cc(NC(=O)Cc2ccccc2Cl)ccc1Oc1cnc(C(F)(F)F)nc1 ?
15

Same for NS(=O)(=O)c1cc(NC(=O)Cc2c(Cl)cccc2C(F)(F)F)ccc1Oc1cccc(Cl)c1
60

Input NS(=O)(=O)c1cc(NC(=O)Cc2ccccn2)ccc1Oc1cccc(Cl)c1
77

Check NS(=O)(=O)c1cc(NC(=O)Cc2ccccc2Cl)ccc1Oc1ccnc(Cl)c1 too.
50

Do the same for Cc1cccc(Oc2ccc(NC(=O)Cc3ccccc3Cl)cc2S(N)(=O)=O)c1 please
70

And the next one, Cc1c(C#N)cccc1Oc1ccc(NC(=O)Cc2ccccc2Cl)cc1S(N)(=O)=O ?
75

How about this compound: NS(=O)(=O)c1cc(NC(=O)Cc2ccccc2Cl)ccc1OCc1ccccc1Cl
76

Next compound up: N#Cc1ccc(Oc2ccc(NC(=O)Cc3ccccc3Cl)cc2S(N)(=O)=O)cc1C#N
50

Another compound to check: COc1ccccc1Oc1ccc(NC(=O)Cc2ccccc2Cl)cc1S(N)(=O)=O
82

Next compound up: Cc1ccc(CC(=O)Nc2ccc(Oc3cccc(Cl)c3)c(S(N)(=O)=O)c2)nc1
79

And the next one, NS(=O)(=O)c1cc(NC(=O)Cc2ccccc2OC(F)F)ccc1Oc1cccc(Cl)c1 ?
73

Same for COc1cccc(Cl)c1CC(=O)Nc1ccc(Oc2cccc(Cl)c2)c(S(N)(=O)=O)c1
69

Moving on to NS(=O)(=O)c1cc(NC(=O)Cc2c(Cl)cc(C(F)(F)F)c(F)c2F)ccc1Oc1cccc(Cl)c1
54

One more compound: Cc1ccc(F)c(Oc2ccc(NC(=O)Cc3ccccc3)cc2S(N)(=O)=O)c1
100

Record: NS(=O)(=O)c1cc(NC(=O)Cc2ccccc2Cl)ccc1Oc1ccccc1
70

Please do the same for Cc1c(Br)ccc(Cl)c1CC(=O)Nc1ccc(Oc2cccc(Cl)c2)c(S(N)(=O)=O)c1 as well.
92

Now give it for Cn1ccc(Oc2ccc(NC(=O)Cc3ccccc3Cl)cc2S(N)(=O)=O)n1 too.
77

Next entry: C=C(C)c1cccc(Oc2ccc(NC(=O)Cc3ccccc3Cl)cc2S(N)(=O)=O)c1
69

Also CC1(C)CC(Oc2ccc(NC(=O)Cc3ccccc3Cl)cc2S(N)(=O)=O)CC(C)(C)O1 , if possible.
14

Next entry: N#CC1(COc2ccc(NC(=O)Cc3ccccc3Cl)cc2S(N)(=O)=O)CCOCC1
71

Let us now turn to NS(=O)(=O)c1cc(NC(=O)Cc2cc(Cl)ccc2Cl)ccc1Oc1cccc(Cl)c1
64

Same thing, different compound: CN1CCCC(Oc2ccc(NC(=O)Cc3ccccc3Cl)cc2S(N)(=O)=O)C1 (stereo not drawn)
77

Another compound to check: NS(=O)(=O)c1cc(NC(=O)Cc2ccccc2)ccc1OCC1CC1
68

Also need Cc1ccc(Cl)c(CC(=O)Nc2ccc(Oc3cccc(Cl)c3)c(S(N)(=O)=O)c2)c1 , thanks.
78

Another compound to check: C[C@H](C(=O)Nc1ccc(Oc2cccc(Cl)c2)c(S(N)(=O)=O)c1)c1ccccc1
65
